Test system: SF-539 CNS
Test: NCI tumour cell line growth inhibition, 48 h
Parameter: TGI

Challenge: Query for SF-539 CNS: what TGI does the record show for CC1CC(=O)CC[C@@H]1OCc1ccccc1 (stereo partly specified) ?
Response given: > 100 µM

Challenge: Query for SF-539 CNS: what TGI does the record show for `Cc1cccc2c1C(=O)/C(=C/c1ccccc1C(=O)O)C2` ?
Response given: > 100 µM

Challenge: Query for SF-539 CNS: what TGI does the record show for `O=C(CN1CCN(c2cc3c(cc2F)c(=O)c(C(=O)O)cn3C2CC2)CC1)Nc1ccc(C(=O)/C=C/c2ccccc2)cc1` ?
Response given: > 100 µM

Challenge: Query for SF-539 CNS: what TGI does the record show for `Nc1ccc(C(=O)N/C(=C\c2ccc3c(c2)OCO3)c2nc3ccc4c(c3[nH]2)C(=O)c2ccccc2C4=O)cc1` ?
Response given: > 100 µM

Challenge: Query for SF-539 CNS: what TGI does the record show for `C[C@@H]1CC[C@H]2C(CN(C)CC3=C(C(F)(F)F)O[C@@H]4O[C@@]5(C)CC[C@H]6[C@H](C)CC[C@@H]3[C@@]46OO5)=C(C(F)(F)F)O[C@@H]3O[C@@]4(C)CC[C@@H]1[C@]32OO4` ?
Response given: > 100 µM

Challenge: Query for SF-539 CNS: what TGI does the record show for CCOC(=O)CCC1(C(=O)O[C@@H]2C[C@H](C)CC[C@H]2C(C)C)CCCCC1=O (stereo partly specified) ?
Response given: > 100 µM

Challenge: Query for SF-539 CNS: what TGI does the record show for `O=C(Nc1ccccc1C(=O)O)C(=Cc1ccccc1O)NC(=O)c1ccccc1` ?
Response given: > 100 µM

Challenge: Query for SF-539 CNS: what TGI does the record show for CC(=O)OC1COC(n2c(N)c(C#N)c(-c3ccccc3)c(C#N)c2=S)C(OC(C)=O)C1OC(C)=O (stereo unspecified) ?
Response given: > 100 µM

Challenge: Query for SF-539 CNS: what TGI does the record show for CCN(CC)CCC1(C(=O)OC)SCCc2ccc(C)cc21 (stereo unspecified) ?
Response given: > 100 µM

Challenge: Query for SF-539 CNS: what TGI does the record show for Clc1ccc(C2=NNC(c3cccc(Cl)c3)C2)cc1 (stereo unspecified) ?
Response given: > 100 µM

Challenge: Query for SF-539 CNS: what TGI does the record show for `CC1(C)CC(=O)C=C(NC(=O)c2ccccc2)C1` ?
Response given: > 100 µM

Challenge: Query for SF-539 CNS: what TGI does the record show for `O=C1/C(=C/c2ccc(Cl)cc2)COc2ccc(Br)cc21` ?
Response given: > 100 µM

Challenge: Query for SF-539 CNS: what TGI does the record show for `CC(=O)[O-].CC(=O)[O-].CC(=O)[O-].CC(=O)[O-].CO.CO.CO.[Rh+2].[Rh+2].c1ccc(-c2ccccn2)nc1` ?
Response given: > 100 µM

Challenge: Query for SF-539 CNS: what TGI does the record show for `C[S+](C)C1(c2ccccc2)C(=O)c2ccccc2C1=O` ?
Response given: > 68.1 µM

Challenge: Query for SF-539 CNS: what TGI does the record show for `Cc1nc(C)c(C(=O)NNC(=O)c2ccccc2)cc1C(=O)NNC(=O)c1ccccc1` ?
Response given: > 100 µM

Challenge: Query for SF-539 CNS: what TGI does the record show for `Cc1nc2cccc(F)c2c(=O)n1-c1nnc(C2CC2)s1` ?
Response given: > 10 µM

Challenge: Query for SF-539 CNS: what TGI does the record show for COC1OC2COC(c3ccccc3)OC2C(OC(=S)c2ccccc2)C1O (stereo unspecified) ?
Response given: 27.7 µM

Challenge: Query for SF-539 CNS: what TGI does the record show for `CC(=O)c1c2c(cc3c1CCC3)CCC2` ?
Response given: > 100 µM

Challenge: Query for SF-539 CNS: what TGI does the record show for `c1ccc2c(c1)[C@@H]1O[C@@H]1[C@@]13O[C@@]21[C@H]1O[C@H]1c1ccccc13` ?
Response given: 34.9 µM

Challenge: Query for SF-539 CNS: what TGI does the record show for `[O-][n+]1cc(SCc2ccccc2)ncc1SCc1ccccc1` ?
Response given: > 10 µM

Challenge: Query for SF-539 CNS: what TGI does the record show for `CC[C@@]1(O)C(=O)N(CCN(C)C)Cc2c1cc1n(c2=O)Cc2cc3ccccc3nc2-1` ?
Response given: 13.1 µM
